Target: T1, Proteinase-Activated Receptor-2 (human, on human keratinocytes) (human, UniProt P55085 37-397)
T1 sequence (looked up): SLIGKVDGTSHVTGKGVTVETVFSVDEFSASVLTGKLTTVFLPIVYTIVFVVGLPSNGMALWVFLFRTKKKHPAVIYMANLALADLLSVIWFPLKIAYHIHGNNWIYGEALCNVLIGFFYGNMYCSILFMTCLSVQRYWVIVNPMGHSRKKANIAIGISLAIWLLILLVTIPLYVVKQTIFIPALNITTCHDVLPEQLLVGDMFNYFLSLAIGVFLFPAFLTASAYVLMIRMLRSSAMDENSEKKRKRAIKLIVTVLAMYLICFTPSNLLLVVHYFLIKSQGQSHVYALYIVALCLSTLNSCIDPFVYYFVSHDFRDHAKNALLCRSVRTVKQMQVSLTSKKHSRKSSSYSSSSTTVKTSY
Experiment: cell-based or functional assay
measuredEndpoint: Inhibition PAR-2 activity (calcium fluorescence, human keratinocytes, peptide at 1 mg/mL) (%)

Ac-FFWDIS-NH2 [Ac-L-Phe-L-Phe-L-Trp-L-Asp-L-Ile-L-Ser-NH2]
38.4
Ac-SFQFIS-NH2 [Ac-L-Ser-L-Phe-L-Gln-L-Phe-L-Ile-L-Ser-NH2]
39
Ac-FMQFHS-NH2 [Ac-L-Phe-L-Met-L-Gln-L-Phe-L-His-L-Ser-NH2]
23
Ac-SFWFIS-NH2 [Ac-L-Ser-L-Phe-L-Trp-L-Phe-L-Ile-L-Ser-NH2]
39.2
